target: Serine/threonine-protein kinase pim-2 (Homo sapiens, UniProt Q9P1W9); test: Inhibition of PIM2 using BAD peptide as substrate preincubated for 15 mins measured after 60 to 100 mins by luminescence assay
Sequence (Q9P1W9 whole entry): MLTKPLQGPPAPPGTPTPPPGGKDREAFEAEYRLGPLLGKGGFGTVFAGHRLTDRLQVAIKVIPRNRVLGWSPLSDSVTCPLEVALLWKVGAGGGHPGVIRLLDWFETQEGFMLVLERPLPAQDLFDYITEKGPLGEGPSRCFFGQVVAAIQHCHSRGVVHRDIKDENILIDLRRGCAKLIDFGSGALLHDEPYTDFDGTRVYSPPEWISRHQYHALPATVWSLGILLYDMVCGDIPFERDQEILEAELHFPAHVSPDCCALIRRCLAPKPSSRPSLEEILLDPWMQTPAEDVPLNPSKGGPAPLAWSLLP
measuredProperty: pIC50
One number for each entry, as −log10 of the molar value.

compound	observedMeasurement
c1cncc(-c2ccc3[nH]cc(-c4ccc(N5CCNCC5)cc4)c3c2)c1	4.82

Could you tell me pIC50 for each of these compounds? They are listed below.
1. Oc1ccc(-c2ccc3c(-c4ccc(N5CCNCC5)cc4)c[nH]c3n2)cc1
2. CC(C)(C)[C@H](N)COc1cncc(-c2ccc3[nH]cc(-c4ccc(N)nc4F)c3c2)n1
3. Nc1ccc(-c2c[nH]c3ccc(-c4cncc(N5CCCC(N)C5)n4)cc23)c(F)n1 (stereo not drawn)
4. CC[C@H](N)COc1cncc(-c2ccc3[nH]cc(-c4ccc(N)nc4F)c3c2)n1

Result:
1. 6.55
2. 6.91
3. 7.09
4. 7.59
